System: SK-OV-3 ovarian
assay_notes: NCI tumour cell line growth inhibition, 48 h
Recorded TGI by entry

COc1ccc2nc3cc(Cl)ccc3c(SCC(=O)Nc3ccccc3-c3ccccc3NC(=O)CSc3c4ccc(Cl)cc4nc4ccc(OC)cc34)c2c1 :: > 100 µM
CCOC(=O)/C(O)=C(/C(=O)OC)c1ccc(Cl)cc1 :: > 100 µM
CC1=CC2c3cccc4[nH]cc(c34)CC2N(C)C1 (centres undefined) :: > 100 µM
CCN1CN(c2ccccc2)C2(CCN(CC(CC3OCCO3)c3ccc(F)cc3)CC2)C1=O (centres undefined) :: > 73.3 µM
CC(=O)OC(C)(C)CCC(=O)[C@](C)(O)[C@H]1[C@H](O)C[C@@]2(C)[C@@H]3CCc4c(cc(OC5OC(CO)C(O)C(O)C5O)c(O)c4C)C3(C)C(=O)C[C@]12C (some centres undefined) :: > 100 µM

Enquiry: Give SK-OV-3 ovarian TGI for "O=[N+]([O-])c1ccc(N=Nc2ccc(O)c3ccccc23)cc1"
Return: 47.7 µM

Enquiry: What about this compound? CN(C)CC1CCC2=C(C1=O)C(c1ccc(Cl)c(Cl)c1)C1=C(CCC(CN(C)C)C1=O)O2 (centres undefined)
Return: 26 µM

Enquiry: What about this compound? COc1ccc(C2=C(c3ccc(OC)c(OC)c3)C(=O)N3CCCC3C2)cc1 (centres undefined)
Return: > 100 µM

Enquiry: What about this compound? CC(=O)CC1=C(OC(C)C)C2(OCCO2)C1O (centres undefined)
Return: > 100 µM

---

System: MDA-MB-435
assay_notes: NCI tumour cell line growth inhibition, 48 h
property_label: TGI

# example entries with known answers
CCOc1cc2c(c(OCC)c1O)CC[C@@H]1[C@@H]2CC[C@]2(C)[C@@H](O)CC[C@@H]12 :: 3.05 µM
CC(=O)Oc1ccc2c3c1O[C@H]1[C@H](O)CC[C@@]4(O)[C@@H](C2)N(C)CC[C@]314 :: > 100 µM
COc1ccc(-c2oc3c(OC)c(OC)cc(O)c3c(=O)c2OC)cc1 :: > 100 µM

From here, focus on the item given below.
Enquiry: # query: TGI of entry COc1cccc(C2c3cc4c(cc3OC(Nc3ccccc3)C2C)OCO4)c1OC (stereo not given)
Return: > 100 µM

---

Test system: K-562 leukemia
assay_notes: NCI tumour cell line growth inhibition, 48 h
Recorded TGI by entry

CCOC(=O)/C=C(/C)Nc1nc2c(c(C(=O)OC)c1C#N)CCCC2 :: > 100 µM
CC(=O)OC(Cc1c(O)c2c(C)cccc2oc1=O)C(C)(C)O (stereo not drawn) :: > 100 µM
CC1=C(CCC(C)NCc2ccc(OCCCN3CCCCC3)cc2)C(C)(C)CCC1 (stereo not drawn) :: 0.509 µM
COc1cc(OC)c(C(=O)/C=C/c2cccc(C#N)c2)c(OC)c1 :: > 50 µM

From here, focus on the item given below.
Enquiry: # query: TGI of entry "O=C(NC(=Nc1ccccc1)SCCSC(=Nc1ccccc1)NC(=O)c1cccs1)c1cccs1"
Return: > 100 µM

---

Tested on: HCT-116 colon
assay_notes: NCI tumour cell line growth inhibition, 48 h
property_label: GI50

# example entries with known answers
COC(=O)C1=C(C)NC(C)=C(C(=O)OCC(C)C)C1c1ccccc1[N+](=O)[O-] (stereo not given) :: 3.02 µM
COc1cc(/C=C/C(=O)c2ccc(F)cc2)ccc1OCCCN1CCN(CC(=O)Nc2ccc(Cl)cc2C(=O)c2ccccc2Cl)CC1 :: 2.23 µM
COC(=O)Nc1nc2ccc(Oc3cccc(NC(=O)Nc4cc(C(F)(F)F)ccc4F)c3)cc2[nH]1 :: 7.71 µM
c1ccc2[nH]c(-c3cc(-c4ccc5c(c4)OCO5)n[nH]3)nc2c1 :: 6.36 µM

From here, focus on the item given below.
Enquiry: # query: GI50 of entry "Cc1nn(-c2ccc(Cl)cc2)c2nc3c(nc12)C(=O)C(=O)c1ccccc1-3"
Return: 7.42 µM

Data origin: PubChem BioAssay (NCI)
